experimentalTarget: T1, rat NPY Y5 receptor, clone Y555 (rat)
T1 chain: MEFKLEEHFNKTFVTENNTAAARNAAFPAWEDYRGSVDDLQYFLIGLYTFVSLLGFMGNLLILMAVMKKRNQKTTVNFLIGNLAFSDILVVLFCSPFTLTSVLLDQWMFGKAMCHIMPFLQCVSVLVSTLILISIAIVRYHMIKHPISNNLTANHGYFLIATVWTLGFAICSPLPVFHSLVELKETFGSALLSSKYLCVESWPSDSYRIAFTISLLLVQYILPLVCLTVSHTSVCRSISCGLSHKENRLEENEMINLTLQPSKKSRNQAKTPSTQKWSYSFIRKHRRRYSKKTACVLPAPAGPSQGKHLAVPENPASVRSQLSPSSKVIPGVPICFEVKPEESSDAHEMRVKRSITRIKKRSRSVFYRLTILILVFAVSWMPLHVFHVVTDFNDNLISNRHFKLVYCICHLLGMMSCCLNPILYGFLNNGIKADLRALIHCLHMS
methodNotes: competition with [125I]PYY, membranes of transfected COS-7 cells; first individual value in brackets
propertyMeasured: pIC50
Answers are plain numbers, as −log10 of the molar value.

## Task What value of measured pIC50 is listed for SPEELSRYYASLRHYLNLVTRQRY [r(13-36)PYY] ?
## Result 8.02
